- System: Escherichia coli TOP10
- protocol-description: shrunken log2 fold change of peptide-encoding DNA abundance (4.5 h post-induction vs induction); higher = less antimicrobial activity (less host growth inhibition)
- particulars: time post-induction: 4.5 h; library: site-saturation at positions 5, 18, 19, 20
Use condition met when the recorded shrunken log2 fold change is no lower than -0.06; use condition not met when it is lower.

sequence-string	tested-on	class-name
RRIRLRPPRLPRPRPRPVNGPRP	Escherichia coli TOP10	condition met
RRIRHRPPRLPRPRPRPGNMPRP	Escherichia coli TOP10	condition not met
RRIRARPPRLPRPRPRPIPPPRP	Escherichia coli TOP10	condition met
RRIRIRPPRLPRPRPRPTPWPRP	Escherichia coli TOP10	condition met
RRIRNRPPRLPRPRPRPPKVPRP	Escherichia coli TOP10	condition met
RRIRNRPPRLPRPRPRPPNRPRP	Escherichia coli TOP10	condition met
RRIRLRPPRLPRPRPRPYKNPRP	Escherichia coli TOP10	condition not met
RRIRWRPPRLPRPRPRPWIHPRP	Escherichia coli TOP10	condition not met
RRIRYRPPRLPRPRPRPPPDPRP	Escherichia coli TOP10	condition met
RRIRMRPPRLPRPRPRPGSFPRP	Escherichia coli TOP10	condition met
RRIRIRPPRLPRPRPRPCIAPRP	Escherichia coli TOP10	condition met
RRIRFRPPRLPRPRPRPACWPRP	Escherichia coli TOP10	condition met
RRIRWRPPRLPRPRPRPFCRPRP	Escherichia coli TOP10	condition met
RRIRARPPRLPRPRPRPWVDPRP	Escherichia coli TOP10	condition met
RRIRRRPPRLPRPRPRPYTDPRP	Escherichia coli TOP10	condition met
RRIRMRPPRLPRPRPRPQSCPRP	Escherichia coli TOP10	condition met
RRIRPRPPRLPRPRPRPAGHPRP	Escherichia coli TOP10	condition met
RRIRNRPPRLPRPRPRPFDTPRP	Escherichia coli TOP10	condition met
RRIRVRPPRLPRPRPRPLETPRP	Escherichia coli TOP10	condition not met
RRIRRRPPRLPRPRPRPMNTPRP	Escherichia coli TOP10	condition not met
RRIRYRPPRLPRPRPRPFFLPRP	Escherichia coli TOP10	condition not met
RRIRWRPPRLPRPRPRPCCLPRP	Escherichia coli TOP10	condition met
RRIRFRPPRLPRPRPRPSRVPRP	Escherichia coli TOP10	condition met
RRIRKRPPRLPRPRPRPIGPPRP	Escherichia coli TOP10	condition met
RRIRTRPPRLPRPRPRPEGGPRP	Escherichia coli TOP10	condition met
RRIRRRPPRLPRPRPRPCTNPRP	Escherichia coli TOP10	condition met
RRIRYRPPRLPRPRPRPQLEPRP	Escherichia coli TOP10	condition not met
RRIRFRPPRLPRPRPRPICYPRP	Escherichia coli TOP10	condition met
RRIRIRPPRLPRPRPRPMHHPRP	Escherichia coli TOP10	condition not met
RRIRTRPPRLPRPRPRPLCLPRP	Escherichia coli TOP10	condition not met
RRIRGRPPRLPRPRPRPRKSPRP	Escherichia coli TOP10	condition met
RRIRYRPPRLPRPRPRPSPIPRP	Escherichia coli TOP10	condition not met

###

Catalogue of sequences with associated shrunken log2 fold change
- System: Escherichia coli TOP10;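 note: peptides expressed intracellularly from a pBAD plasmid library in pooled LB shake-flask culture, induced with 0.3% L-arabinose, DNA abundance read by NGS, three biological replicates, DESeq2 with apeglm shrinkage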
- protocol-description: shrunken log2 fold change of peptide-encoding DNA abundance (4.5 h post-induction vs induction); higher = less antimicrobial activity (less host growth inhibition)
- particulars: time post-induction: 4.5 h; library: site-saturation at positions 5, 18, 19, 20
assay-endpoint: shrunken log2 fold change

sequence-string	assay-endpoint	reported
RRIRKRPPRLPRPRPRPMCTPRP	shrunken log2 fold change	-0.0805
RRIRWRPPRLPRPRPRPKPKPRP	shrunken log2 fold change	-0.0893
RRIRYRPPRLPRPRPRPRCIPRP	shrunken log2 fold change	-0.308
RRIRWRPPRLPRPRPRPCQDPRP	shrunken log2 fold change	-0.0575
RRIRTRPPRLPRPRPRPKDLPRP	shrunken log2 fold change	0.0246
RRIRKRPPRLPRPRPRPTICPRP	shrunken log2 fold change	-0.0104
RRIRWRPPRLPRPRPRPWNAPRP	shrunken log2 fold change	-0.176
RRIRQRPPRLPRPRPRPAANPRP	shrunken log2 fold change	0.0666
